- TARGET_OR_TEST_SYSTEM: LRRK2 G2019S (Homo sapiens, UniProt Q5S007, G2019S)
- Sequence (Q5S007 whole entry G2019S): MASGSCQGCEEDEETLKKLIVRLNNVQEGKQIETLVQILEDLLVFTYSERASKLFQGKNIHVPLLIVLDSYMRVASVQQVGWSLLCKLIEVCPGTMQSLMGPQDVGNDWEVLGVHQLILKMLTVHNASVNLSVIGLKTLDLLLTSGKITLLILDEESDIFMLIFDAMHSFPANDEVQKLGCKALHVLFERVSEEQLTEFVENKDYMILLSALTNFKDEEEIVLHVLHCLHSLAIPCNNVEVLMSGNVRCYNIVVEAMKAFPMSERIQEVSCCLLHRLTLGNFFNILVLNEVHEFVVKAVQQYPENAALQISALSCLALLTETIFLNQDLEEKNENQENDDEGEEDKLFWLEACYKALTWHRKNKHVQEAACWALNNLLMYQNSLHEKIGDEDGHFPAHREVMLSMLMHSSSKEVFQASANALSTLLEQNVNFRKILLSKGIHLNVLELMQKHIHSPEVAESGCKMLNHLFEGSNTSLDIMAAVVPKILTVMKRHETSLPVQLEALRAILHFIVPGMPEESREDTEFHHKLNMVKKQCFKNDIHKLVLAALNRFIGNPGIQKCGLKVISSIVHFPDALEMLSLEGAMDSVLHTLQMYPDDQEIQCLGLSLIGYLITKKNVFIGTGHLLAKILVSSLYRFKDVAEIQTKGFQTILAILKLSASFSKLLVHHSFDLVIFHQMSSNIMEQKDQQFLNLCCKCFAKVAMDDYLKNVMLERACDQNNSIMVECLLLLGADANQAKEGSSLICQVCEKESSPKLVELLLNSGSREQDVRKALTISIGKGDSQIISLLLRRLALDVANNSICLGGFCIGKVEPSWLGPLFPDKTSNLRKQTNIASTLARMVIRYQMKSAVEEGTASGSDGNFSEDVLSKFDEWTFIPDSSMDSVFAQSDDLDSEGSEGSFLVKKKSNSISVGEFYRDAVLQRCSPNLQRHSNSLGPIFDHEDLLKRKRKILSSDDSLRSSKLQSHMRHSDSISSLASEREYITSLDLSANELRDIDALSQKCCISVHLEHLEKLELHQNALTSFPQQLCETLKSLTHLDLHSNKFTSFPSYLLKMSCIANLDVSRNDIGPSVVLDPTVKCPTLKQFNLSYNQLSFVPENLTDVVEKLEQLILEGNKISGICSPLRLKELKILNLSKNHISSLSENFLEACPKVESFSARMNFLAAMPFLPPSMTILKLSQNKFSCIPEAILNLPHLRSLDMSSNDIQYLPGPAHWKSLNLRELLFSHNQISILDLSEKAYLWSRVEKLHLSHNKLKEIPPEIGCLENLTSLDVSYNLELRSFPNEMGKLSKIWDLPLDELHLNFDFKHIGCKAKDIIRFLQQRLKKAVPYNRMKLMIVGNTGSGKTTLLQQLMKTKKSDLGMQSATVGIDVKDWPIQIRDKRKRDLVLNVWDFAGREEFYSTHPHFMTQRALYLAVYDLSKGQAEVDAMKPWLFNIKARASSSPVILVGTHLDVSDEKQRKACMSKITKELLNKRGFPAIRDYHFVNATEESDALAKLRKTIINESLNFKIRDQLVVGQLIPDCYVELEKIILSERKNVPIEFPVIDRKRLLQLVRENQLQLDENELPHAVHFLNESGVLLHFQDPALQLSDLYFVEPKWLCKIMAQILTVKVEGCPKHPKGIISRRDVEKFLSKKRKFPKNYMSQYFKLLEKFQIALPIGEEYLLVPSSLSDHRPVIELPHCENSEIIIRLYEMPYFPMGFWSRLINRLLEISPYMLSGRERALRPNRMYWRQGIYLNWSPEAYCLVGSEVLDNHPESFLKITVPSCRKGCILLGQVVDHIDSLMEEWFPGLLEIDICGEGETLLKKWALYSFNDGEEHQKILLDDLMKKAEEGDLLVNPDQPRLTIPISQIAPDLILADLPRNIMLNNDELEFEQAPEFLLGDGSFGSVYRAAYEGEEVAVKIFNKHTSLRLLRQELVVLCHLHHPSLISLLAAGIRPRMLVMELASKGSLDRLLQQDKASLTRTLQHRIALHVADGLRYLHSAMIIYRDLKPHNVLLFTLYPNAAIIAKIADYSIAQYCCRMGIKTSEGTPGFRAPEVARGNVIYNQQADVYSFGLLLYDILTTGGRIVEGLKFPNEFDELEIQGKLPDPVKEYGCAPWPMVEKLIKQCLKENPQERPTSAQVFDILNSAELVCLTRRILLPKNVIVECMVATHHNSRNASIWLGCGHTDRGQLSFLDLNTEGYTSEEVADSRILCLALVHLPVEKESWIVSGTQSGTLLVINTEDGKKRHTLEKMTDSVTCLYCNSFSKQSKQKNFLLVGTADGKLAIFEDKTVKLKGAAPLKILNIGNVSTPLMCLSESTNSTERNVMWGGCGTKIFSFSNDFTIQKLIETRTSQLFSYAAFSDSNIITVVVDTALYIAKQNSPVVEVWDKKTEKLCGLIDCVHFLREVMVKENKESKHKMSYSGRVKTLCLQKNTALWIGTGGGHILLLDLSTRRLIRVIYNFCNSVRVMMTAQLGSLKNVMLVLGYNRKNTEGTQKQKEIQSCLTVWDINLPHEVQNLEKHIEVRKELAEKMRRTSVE
- ASSAY_SUMMARY: LRRK2 G2019S Km ATP LanthaScreen assay
- Format: biochemical
- EXPERIMENTAL_CONDITIONS: read-out: LRRK2 pIC50 (converted)
RECORDED_ENDPOINT: IC50 (nM)

Here is how some compounds turned out for IC50.
INSERT INTO measurements (compound, target_or_test_system, test_result) VALUES
  ('CC1(N2CCC(c3cc4cc(NC(=O)c5cnn(C67CC(C6)C7)c5)ncc4cc3Cl)CC2)COCC1F (single isomer, unassigned) [Ex-1.53]', 'LRRK2 G2019S (Homo sapiens, UniProt Q5S007, G2019S)', 0.676),
  ('Cc1cc2cnc(NC(=O)C3C4CCOCC43)cc2cc1C1CCN(C2(C)COCC2O)CC1 (stereo not drawn) [Ex-2.52]', 'LRRK2 G2019S (Homo sapiens, UniProt Q5S007, G2019S)', 0.676),
  ('N#CC1(c2ccc3cnc(NC(=O)C4CC45CCOCC5)cc3c2)CC12CC2 (single isomer, unassigned) [Ex-18.12]', 'LRRK2 G2019S (Homo sapiens, UniProt Q5S007, G2019S)', 1.62);

1. N#CC1(c2ccc3cnc(NC(=O)C4CC45CCOCC5)cc3c2)CC12CC2 (single isomer, unassigned) [Ex-18.11]
2. CC1CC1(C#N)c1ccc2cnc(NC(=O)C3CC3)cc2c1 (single isomer, unassigned) [Ex-18.7]
3. Cn1cc(C(=O)Nc2cc3cc(C4CCN([C@]5(C)COC[C@@H]5O)CC4)c(Cl)cc3cn2)cn1 (single isomer, unassigned) [Ex-12.6]
4. CC(C)(O)c1ccc(CC(=O)Nc2cc3cc(C4(C#N)CC45CC5)ccc3cn2)cc1 (single isomer, unassigned) [Ex-1.44]
Qu. Rank the items in ascending order with respect to IC50. Please list each label once, in the requested order.
Ans. 3, 2, 1, 4
(3: 0.776 nM, 2: 4.57 nM, 1: 9.55 nM, 4: 22.9 nM)
